target: Proto-oncogene tyrosine-protein kinase receptor Ret (Homo sapiens); assay: Inhibition of recombinant human GST-tagged RET (658 to 1114 residues) expressed in baculovirus expression system at 500 nM using Tyr 02 as substrate incubated for 1 hr in presence of ATP at its Km concentration by Z'-LYTE assay relative to control
measure: inhibition (%)

[[record]]
record_smiles = "OC[C@@H](Nc1ncnc2[nH]c(-c3ccccc3)cc12)c1ccccc1"
unit_tag = "%"
value_measured = 14


A. COc1ccccc1-c1cc2c(N[C@H](CO)c3ccccc3)ncnc2[nH]1
B. OCC[C@@H](Nc1ncnc2[nH]c(-c3ccccc3)cc12)c1ccccc1
C. CCOc1ccccc1-c1cc2c(N[C@H](CO)c3ccccc3)ncnc2[nH]1
D. CN(C)CCNCc1ccc(-c2cc3c(N[C@H](CO)c4ccccc4)ncnc3[nH]2)cc1F
# input Highest inhibition first, then in falling order down to the smallest. As an answer, provide the labels arranged in the order called for.
# output D, A, C, B

----------
target: Vascular endothelial growth factor receptor 3 (Homo sapiens) (UniProt P35916); experiment: Inhibition of recombinant human GST-tagged FLT4 (800 to 1297 residues) expressed in baculovirus expression system at 500 nM using Tyr 04 peptide as substrate incubated for 1 hr in presence of ATP at its Km concentration by Z'-LYTE assay relative to control
Sequence (P35916 whole entry, the tested form may be a part): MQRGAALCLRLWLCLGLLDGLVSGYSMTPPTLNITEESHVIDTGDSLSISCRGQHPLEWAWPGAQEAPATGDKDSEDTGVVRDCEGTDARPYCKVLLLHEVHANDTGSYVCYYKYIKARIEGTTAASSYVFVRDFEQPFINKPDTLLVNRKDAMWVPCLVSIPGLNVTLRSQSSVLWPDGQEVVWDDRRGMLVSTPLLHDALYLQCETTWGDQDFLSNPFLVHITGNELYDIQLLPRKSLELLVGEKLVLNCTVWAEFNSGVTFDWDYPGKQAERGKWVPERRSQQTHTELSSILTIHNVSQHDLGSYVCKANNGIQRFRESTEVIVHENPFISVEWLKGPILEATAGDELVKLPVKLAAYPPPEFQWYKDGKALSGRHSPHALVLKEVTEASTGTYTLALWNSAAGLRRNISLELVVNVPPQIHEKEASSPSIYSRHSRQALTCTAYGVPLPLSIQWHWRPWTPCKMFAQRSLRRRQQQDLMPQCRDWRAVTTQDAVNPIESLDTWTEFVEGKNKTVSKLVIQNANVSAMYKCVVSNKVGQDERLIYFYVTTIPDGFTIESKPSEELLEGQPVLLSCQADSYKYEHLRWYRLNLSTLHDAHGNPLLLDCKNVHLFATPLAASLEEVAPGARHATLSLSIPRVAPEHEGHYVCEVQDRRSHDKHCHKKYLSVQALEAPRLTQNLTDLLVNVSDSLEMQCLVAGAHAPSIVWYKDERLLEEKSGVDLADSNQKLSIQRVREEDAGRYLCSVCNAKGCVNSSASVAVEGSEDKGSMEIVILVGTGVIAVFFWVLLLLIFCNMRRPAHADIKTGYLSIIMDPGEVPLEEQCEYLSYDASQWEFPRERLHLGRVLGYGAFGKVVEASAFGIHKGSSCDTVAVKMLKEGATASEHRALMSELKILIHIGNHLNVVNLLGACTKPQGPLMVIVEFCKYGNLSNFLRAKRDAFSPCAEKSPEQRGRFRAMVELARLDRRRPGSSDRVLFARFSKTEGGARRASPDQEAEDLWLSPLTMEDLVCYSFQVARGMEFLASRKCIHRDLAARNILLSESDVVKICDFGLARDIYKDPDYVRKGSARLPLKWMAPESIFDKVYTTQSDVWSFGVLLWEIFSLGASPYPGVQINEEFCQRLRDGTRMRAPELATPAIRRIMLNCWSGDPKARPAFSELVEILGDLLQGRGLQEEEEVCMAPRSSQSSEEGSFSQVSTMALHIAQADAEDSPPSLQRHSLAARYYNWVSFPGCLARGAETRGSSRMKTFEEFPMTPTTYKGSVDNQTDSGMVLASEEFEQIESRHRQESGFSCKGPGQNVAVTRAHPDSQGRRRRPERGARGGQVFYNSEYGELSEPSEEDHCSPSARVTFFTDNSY
measure: inhibition (%)

// known answers, use as guide
[[record]]
compound = "OCC[C@@H](Nc1ncnc2[nH]c(-c3ccccc3)cc12)c1ccccc1"
unit_tag = "%"
value_measured = 20

[[record]]
compound = "C#Cc1cccc(Nc2ncnc3cc(OCCOC)c(OCCOC)cc23)c1 [ERLOTINIB]"
unit_tag = "%"
value_measured = 44

[[record]]
compound = "CCOc1ccccc1-c1cc2c(N[C@H](CO)c3ccccc3)ncnc2[nH]1"
unit_tag = "%"
value_measured = 21


a. CN(C)CCNCc1ccc(-c2cc3c(N[C@H](CO)c4ccccc4)ncnc3[nH]2)cc1F
b. COc1ccccc1-c1cc2c(N[C@H](CO)c3ccccc3)ncnc2[nH]1
# input Between item a and item b , which reported inhibition is smaller? Answer with the label corresponding to your selection.
# output b

----------
target: Ephrin type-A receptor 2 (Homo sapiens) (UniProt P29317); experiment: Inhibition of recombinant human GST-tagged EPHA2 cytoplasmic domain expressed in baculovirus expression system at 500 nM using Tyr 01 peptide as substrate incubated for 1 hr in presence of ATP at its Km concentration by Z'-LYTE assay relative to control
Sequence (P29317 whole entry, the tested form may be a part): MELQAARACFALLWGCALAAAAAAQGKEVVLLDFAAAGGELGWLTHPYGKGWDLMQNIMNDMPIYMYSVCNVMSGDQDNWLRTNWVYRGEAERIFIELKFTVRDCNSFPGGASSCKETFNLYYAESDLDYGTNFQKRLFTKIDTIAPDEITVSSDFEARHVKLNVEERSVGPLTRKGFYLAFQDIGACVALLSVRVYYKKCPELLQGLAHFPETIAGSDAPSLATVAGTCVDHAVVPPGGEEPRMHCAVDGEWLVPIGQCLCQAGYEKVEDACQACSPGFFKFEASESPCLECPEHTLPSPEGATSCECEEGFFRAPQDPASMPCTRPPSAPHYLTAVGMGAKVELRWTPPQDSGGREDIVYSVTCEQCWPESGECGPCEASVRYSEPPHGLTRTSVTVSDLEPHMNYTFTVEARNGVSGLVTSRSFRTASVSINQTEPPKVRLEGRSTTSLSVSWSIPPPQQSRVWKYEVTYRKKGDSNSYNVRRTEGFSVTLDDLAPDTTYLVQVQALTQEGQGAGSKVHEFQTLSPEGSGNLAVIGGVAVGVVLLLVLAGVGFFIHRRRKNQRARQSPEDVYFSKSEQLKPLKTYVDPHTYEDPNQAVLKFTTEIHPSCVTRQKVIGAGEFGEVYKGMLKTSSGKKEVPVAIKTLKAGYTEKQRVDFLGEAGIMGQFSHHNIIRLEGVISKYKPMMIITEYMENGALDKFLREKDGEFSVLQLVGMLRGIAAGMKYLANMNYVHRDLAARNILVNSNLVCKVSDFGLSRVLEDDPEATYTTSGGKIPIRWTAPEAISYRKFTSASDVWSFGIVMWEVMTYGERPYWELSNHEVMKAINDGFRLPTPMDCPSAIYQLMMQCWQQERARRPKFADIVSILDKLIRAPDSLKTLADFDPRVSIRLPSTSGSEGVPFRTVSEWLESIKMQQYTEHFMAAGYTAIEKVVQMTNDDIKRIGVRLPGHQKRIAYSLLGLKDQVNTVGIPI
measure: inhibition (%)

a. COc1ccccc1-c1cc2c(N[C@H](CO)c3ccccc3)ncnc2[nH]1
b. CN(C)CCNCc1ccc(-c2cc3c(N[C@H](CO)c4ccccc4)ncnc3[nH]2)cc1F
# input For this pair, a and b , which shows a numerically higher inhibition? Answer with the label corresponding to your selection.
# output b

I. OCC[C@@H](Nc1ncnc2[nH]c(-c3ccccc3)cc12)c1ccccc1
II. OC[C@@H](Nc1ncnc2[nH]c(-c3ccccc3)cc12)c1ccccc1
III. C#Cc1cccc(Nc2ncnc3cc(OCCOC)c(OCCOC)cc23)c1
# input Highest inhibition first, then in falling order down to the smallest. As an answer, provide the labels arranged in the order called for.
# output I, II, III
(I: 23%, II: 16%, III: 11%)

----------
target: Tyrosine-protein kinase Lyn (Homo sapiens); assay: Inhibition of recombinant full length human GST-tagged LYN-A expressed in insect cells at 500 nM using Tyr 02 as substrate incubated for 1 hr in presence of ATP at its Km concentration by Z'-LYTE assay relative to control
measure: inhibition (%)

[[record]]
record_smiles = "CCOc1ccccc1-c1cc2c(N[C@H](CO)c3ccccc3)ncnc2[nH]1"
unit_tag = "%"
value_measured = 14


a. OCC[C@@H](Nc1ncnc2[nH]c(-c3ccccc3)cc12)c1ccccc1
b. OC[C@@H](Nc1ncnc2[nH]c(-c3ccccc3)cc12)c1ccccc1
# input For this pair, a and b , which shows a numerically higher inhibition? Answer with the label corresponding to your selection.
# output b
(b: 47%, a: 16%)

A. CN(C)CCNCc1ccc(-c2cc3c(N[C@H](CO)c4ccccc4)ncnc3[nH]2)cc1F
B. COc1ccccc1-c1cc2c(N[C@H](CO)c3ccccc3)ncnc2[nH]1
# input For this pair, A and B , which shows a numerically higher inhibition? Answer with the label corresponding to your selection.
# output B

Where do the numbers come from? From ChEMBL document CHEMBL4715760.
